Biological target: cAMP and cAMP-inhibited cGMP 3',5'-cyclic phosphodiesterase 10A (Homo sapiens, UniProt Q9Y233)
Sequence (Q9Y233 whole entry): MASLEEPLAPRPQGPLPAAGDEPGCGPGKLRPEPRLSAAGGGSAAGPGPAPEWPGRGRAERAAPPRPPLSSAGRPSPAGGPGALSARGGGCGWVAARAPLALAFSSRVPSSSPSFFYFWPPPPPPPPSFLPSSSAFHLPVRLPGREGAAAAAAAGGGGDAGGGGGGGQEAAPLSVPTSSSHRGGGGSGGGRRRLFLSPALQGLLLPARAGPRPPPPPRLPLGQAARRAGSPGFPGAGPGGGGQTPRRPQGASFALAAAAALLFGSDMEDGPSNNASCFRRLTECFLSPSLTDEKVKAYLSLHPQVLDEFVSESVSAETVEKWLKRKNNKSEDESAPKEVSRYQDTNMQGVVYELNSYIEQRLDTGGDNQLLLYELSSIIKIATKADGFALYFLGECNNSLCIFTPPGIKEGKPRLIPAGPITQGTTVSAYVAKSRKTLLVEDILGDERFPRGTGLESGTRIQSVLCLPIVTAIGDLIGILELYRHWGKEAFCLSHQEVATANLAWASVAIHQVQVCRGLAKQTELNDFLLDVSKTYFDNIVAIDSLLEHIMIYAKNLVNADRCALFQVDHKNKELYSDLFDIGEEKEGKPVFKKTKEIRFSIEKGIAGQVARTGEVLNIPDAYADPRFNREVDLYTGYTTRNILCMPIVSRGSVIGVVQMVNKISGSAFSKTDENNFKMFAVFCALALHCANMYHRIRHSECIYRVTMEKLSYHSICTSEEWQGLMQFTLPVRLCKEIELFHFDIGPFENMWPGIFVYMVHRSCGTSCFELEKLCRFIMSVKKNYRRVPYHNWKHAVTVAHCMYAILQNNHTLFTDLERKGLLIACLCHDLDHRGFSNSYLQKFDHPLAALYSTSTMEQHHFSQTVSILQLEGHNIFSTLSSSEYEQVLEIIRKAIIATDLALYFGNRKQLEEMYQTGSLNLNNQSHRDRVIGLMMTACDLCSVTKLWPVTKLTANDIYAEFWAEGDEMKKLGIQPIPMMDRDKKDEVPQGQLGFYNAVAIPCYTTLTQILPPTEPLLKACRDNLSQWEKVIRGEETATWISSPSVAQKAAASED
Experiment: Inhibition of human recombinant PDE10A
property.name: IC50

I am curious: what IC50 value has been reported for CCC(C#N)(CC)Nc1nc(NC)nc(-n2cncn2)n1 ?
> 1000 nM

* * *

Biological target: High affinity 3',5'-cyclic-AMP phosphodiesterase 7A (Homo sapiens, UniProt Q13946)
Sequence (Q13946 whole entry): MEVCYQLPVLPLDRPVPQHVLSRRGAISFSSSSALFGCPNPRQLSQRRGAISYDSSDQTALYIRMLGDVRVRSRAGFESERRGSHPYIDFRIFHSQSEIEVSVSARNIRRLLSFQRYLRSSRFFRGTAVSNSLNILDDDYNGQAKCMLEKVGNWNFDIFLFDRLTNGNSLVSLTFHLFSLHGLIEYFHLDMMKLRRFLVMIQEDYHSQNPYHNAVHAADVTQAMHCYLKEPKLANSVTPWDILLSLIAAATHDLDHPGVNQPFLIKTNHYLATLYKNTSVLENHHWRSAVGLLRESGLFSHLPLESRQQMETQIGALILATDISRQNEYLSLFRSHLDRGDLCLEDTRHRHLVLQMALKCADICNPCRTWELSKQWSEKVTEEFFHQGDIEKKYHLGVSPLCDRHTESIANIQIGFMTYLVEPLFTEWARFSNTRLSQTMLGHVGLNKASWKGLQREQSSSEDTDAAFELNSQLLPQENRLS
pIC50: −log10 of the molar value.
property.name: pIC50

// known answers, use as guide
smiles.input: CNc1nc(NC2(C#N)CCCCC2)nc(-n2cnc(C)n2)n1
measured: < 5.30
//
smiles.input: CNc1nc(NC2(C#N)CCCCC2)nc(-n2ccnc2)n1
measured: 5.98
//
smiles.input: CNc1nc(NC2(C#N)CCCCC2)nc(OC)n1
measured: 6.28

Next molecule, please.
I am curious: what pIC50 value has been reported for CNc1nc(Cl)nc(NC2(C#N)CCCCC2)n1 ?
5.97

* * *

Target: Dual specificity calcium/calmodulin-dependent 3',5'-cyclic nucleotide phosphodiesterase 1B (Homo sapiens)
Sequence (Q01064 whole entry): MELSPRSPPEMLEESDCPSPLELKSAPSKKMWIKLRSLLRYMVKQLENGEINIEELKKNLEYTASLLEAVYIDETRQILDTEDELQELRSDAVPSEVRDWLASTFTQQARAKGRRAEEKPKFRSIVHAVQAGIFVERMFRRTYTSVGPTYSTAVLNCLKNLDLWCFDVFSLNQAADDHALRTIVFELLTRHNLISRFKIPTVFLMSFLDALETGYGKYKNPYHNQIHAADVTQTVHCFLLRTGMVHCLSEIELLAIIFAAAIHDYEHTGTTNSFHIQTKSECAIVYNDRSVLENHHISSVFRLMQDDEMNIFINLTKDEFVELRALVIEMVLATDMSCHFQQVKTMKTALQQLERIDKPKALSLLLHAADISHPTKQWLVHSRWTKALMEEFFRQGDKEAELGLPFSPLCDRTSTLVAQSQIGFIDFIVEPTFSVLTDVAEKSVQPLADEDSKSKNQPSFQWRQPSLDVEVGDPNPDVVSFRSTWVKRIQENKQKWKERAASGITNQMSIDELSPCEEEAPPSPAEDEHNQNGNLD
Assay: Inhibition of human recombinant PDE1B
pIC50: −log10 of the molar value.
property.name: pIC50

I am curious: what pIC50 value has been reported for CCC(C#N)(CC)Nc1nc(NC)nc(-n2cncn2)n1 ?
< 6.00

* * *

Test: Intrinsic clearance in rat liver microsomes
Format: ADME, Microsome
Details: read-out: CLH
Dear colleague, classification is by CLint scaled, with ranges listed here: band A: < 40 mL/min/kg; band B: ≥ 40 mL/min/kg and < 200 mL/min/kg; band C: ≥ 200 mL/min/kg

Before answering, review these 3 worked examples.
molecule: CCCC(C#N)(CCC)Nc1nc(NC)nc(-n2cncn2)n1
group.label: band A
//
molecule: CNc1nc(NC2(C#N)CCCCC2)nc(N(C)C)n1
group.label: band C
//
molecule: CNc1nc(NC2(C#N)CCCCC2C)nc(-n2cncn2)n1 (mixture of isomers)
group.label: band B

Lab log: CNc1nc(NC2(C#N)CCC(C)CC2)nc(-n2cncn2)n1 (mixture of isomers) — assign CLint scaled category
band A

Then CCC(C)(C#N)Nc1nc(NC)nc(-n2cncn2)n1 (racemic) ?
band A

Then CNc1nc(NC2(C#N)CCCCC2)nc(-n2cncn2)n1 ?
band B

* * *

Molecular target: 3',5'-cyclic-AMP phosphodiesterase 4D (Rattus norvegicus, UniProt P14270)
Sequence (P14270 whole entry): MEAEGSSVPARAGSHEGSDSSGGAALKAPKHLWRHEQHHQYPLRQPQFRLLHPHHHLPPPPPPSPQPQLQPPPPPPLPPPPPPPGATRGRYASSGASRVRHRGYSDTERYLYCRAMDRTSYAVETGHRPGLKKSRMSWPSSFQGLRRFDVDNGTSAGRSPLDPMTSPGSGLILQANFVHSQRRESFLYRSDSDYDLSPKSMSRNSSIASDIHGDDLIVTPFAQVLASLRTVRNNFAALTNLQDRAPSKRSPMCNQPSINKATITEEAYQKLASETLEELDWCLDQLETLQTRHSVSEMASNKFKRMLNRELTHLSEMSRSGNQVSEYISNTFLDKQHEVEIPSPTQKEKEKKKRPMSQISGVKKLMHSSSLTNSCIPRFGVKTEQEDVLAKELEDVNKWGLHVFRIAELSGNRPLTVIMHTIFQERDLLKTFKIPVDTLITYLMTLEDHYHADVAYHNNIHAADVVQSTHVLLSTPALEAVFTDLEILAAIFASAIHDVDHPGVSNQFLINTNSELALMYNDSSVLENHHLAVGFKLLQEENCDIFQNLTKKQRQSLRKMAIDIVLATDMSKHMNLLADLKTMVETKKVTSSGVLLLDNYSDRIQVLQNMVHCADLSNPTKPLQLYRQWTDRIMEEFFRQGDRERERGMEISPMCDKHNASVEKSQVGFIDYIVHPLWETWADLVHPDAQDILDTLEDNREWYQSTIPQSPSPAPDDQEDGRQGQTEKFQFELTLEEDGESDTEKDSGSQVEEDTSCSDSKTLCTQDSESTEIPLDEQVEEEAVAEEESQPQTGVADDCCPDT
property.name: IC50 (nM)
Field format: number, assumed nM, no unit text.

I am curious: what IC50 value has been reported for CCC(C#N)(CC)Nc1nc(NC)nc(-n2cncn2)n1 ?
1.18

* * *

Assay: Cmax in rat at 3 mg/kg, po
Format: ADME, organism-based
Parameters: dose 3 mg/kg, route oral
Settings: in vivo
property.name: Cmax (µg/mL)
Field format: number, assumed µg/mL, no unit text.

I am curious: what Cmax value has been reported for CCC(C#N)(CC)Nc1nc(NC)nc(-n2cncn2)n1 ?
0.669

* * *

Molecular target: hERG (KCNH2) (Homo sapiens, UniProt Q12809)
Sequence (Q12809 whole entry): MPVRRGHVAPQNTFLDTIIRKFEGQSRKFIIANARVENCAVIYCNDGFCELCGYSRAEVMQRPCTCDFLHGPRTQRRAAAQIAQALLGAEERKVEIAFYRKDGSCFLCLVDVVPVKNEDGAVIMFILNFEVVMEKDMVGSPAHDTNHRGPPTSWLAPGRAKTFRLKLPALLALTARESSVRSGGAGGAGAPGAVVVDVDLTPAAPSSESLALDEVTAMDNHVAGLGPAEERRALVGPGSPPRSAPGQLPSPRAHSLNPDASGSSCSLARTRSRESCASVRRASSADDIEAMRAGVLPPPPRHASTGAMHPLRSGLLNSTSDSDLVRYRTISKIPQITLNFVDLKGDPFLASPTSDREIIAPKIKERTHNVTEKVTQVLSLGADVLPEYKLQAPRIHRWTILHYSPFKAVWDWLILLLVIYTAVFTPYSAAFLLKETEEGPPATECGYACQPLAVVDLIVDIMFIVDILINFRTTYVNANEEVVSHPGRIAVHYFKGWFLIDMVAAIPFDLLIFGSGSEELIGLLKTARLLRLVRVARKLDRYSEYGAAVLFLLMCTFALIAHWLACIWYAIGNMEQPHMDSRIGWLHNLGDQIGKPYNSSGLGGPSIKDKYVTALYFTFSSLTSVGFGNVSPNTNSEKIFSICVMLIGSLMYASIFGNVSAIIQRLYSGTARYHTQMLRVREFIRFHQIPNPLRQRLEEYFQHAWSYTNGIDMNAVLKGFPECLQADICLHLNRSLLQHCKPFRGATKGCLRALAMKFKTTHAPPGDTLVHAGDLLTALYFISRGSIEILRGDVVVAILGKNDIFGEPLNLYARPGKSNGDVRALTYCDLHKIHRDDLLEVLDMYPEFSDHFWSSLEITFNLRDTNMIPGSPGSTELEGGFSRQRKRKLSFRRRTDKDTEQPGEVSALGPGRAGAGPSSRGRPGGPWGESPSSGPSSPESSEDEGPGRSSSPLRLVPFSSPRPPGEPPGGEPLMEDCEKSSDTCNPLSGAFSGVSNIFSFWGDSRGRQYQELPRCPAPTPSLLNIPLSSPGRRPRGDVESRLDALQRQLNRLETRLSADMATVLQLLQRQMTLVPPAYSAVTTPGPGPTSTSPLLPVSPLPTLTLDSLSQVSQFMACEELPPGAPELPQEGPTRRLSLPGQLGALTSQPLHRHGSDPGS
Assay: Inhibition of human ERG at 10 uM
property.name: inhibition at 10 µM
Give your result as the value with the unit written after it.

I am curious: what inhibition at 10 µM value has been reported for CCC(C#N)(CC)Nc1nc(NC)nc(-n2cncn2)n1 ?
6%

* * *

// IC50 collected for 3',5'-cyclic-AMP phosphodiesterase 4A (Homo sapiens)
Field format: number, assumed nM, no unit text.

// known answers, use as guide
smiles.input: CNc1nc(NC)nc(NC2(C#N)CCCCC2)n1
property.name: IC50
measured: 153
//
smiles.input: CNc1nc(Cl)nc(NC(C)(C)C)n1
property.name: IC50
measured: 245
//
smiles.input: CN(C)c1nc(Cl)nc(NC2(C#N)CCCCC2)n1
property.name: IC50
measured: 668

I am curious: what IC50 value has been reported for C#CC(CC)(CC)Nc1nc(NC)nc(-n2cncn2)n1 ?
2.7

Then CNc1nc(Cl)nc(NC2CCCCC2)n1 ?
104

Then CNc1nc(NC2(C#N)CCCCC2)nc(-n2cnc3ccccc32)n1 ?
12

Then CNc1nc(NC2(C#N)CCCCC2)nc(OC)n1 ?
19

Then CNc1nc(Cl)nc(NC2(C#N)CCCCC2)n1 ?
40

Then CNc1nc(Nc2ccccc2)nc(NC2(C#N)CCCCC2)n1 ?
56

Then N#CC1(Nc2nc(N)nc(Cl)n2)CCCCC1 ?
1040
